Provide the reported IC50 of each item.
Molecular target: IGF-1R (Homo sapiens (Human))
Assay: Example B-1: IGF-1R Assay (PC3 cells, IGF1 stimulation, AlphaLISA)
Type: cell-based
Conditions: 200 ng/mL IGF1 stimulation, read-out: Biological Activity against IGF-1R IC50
Sequence (P08069 31-1367): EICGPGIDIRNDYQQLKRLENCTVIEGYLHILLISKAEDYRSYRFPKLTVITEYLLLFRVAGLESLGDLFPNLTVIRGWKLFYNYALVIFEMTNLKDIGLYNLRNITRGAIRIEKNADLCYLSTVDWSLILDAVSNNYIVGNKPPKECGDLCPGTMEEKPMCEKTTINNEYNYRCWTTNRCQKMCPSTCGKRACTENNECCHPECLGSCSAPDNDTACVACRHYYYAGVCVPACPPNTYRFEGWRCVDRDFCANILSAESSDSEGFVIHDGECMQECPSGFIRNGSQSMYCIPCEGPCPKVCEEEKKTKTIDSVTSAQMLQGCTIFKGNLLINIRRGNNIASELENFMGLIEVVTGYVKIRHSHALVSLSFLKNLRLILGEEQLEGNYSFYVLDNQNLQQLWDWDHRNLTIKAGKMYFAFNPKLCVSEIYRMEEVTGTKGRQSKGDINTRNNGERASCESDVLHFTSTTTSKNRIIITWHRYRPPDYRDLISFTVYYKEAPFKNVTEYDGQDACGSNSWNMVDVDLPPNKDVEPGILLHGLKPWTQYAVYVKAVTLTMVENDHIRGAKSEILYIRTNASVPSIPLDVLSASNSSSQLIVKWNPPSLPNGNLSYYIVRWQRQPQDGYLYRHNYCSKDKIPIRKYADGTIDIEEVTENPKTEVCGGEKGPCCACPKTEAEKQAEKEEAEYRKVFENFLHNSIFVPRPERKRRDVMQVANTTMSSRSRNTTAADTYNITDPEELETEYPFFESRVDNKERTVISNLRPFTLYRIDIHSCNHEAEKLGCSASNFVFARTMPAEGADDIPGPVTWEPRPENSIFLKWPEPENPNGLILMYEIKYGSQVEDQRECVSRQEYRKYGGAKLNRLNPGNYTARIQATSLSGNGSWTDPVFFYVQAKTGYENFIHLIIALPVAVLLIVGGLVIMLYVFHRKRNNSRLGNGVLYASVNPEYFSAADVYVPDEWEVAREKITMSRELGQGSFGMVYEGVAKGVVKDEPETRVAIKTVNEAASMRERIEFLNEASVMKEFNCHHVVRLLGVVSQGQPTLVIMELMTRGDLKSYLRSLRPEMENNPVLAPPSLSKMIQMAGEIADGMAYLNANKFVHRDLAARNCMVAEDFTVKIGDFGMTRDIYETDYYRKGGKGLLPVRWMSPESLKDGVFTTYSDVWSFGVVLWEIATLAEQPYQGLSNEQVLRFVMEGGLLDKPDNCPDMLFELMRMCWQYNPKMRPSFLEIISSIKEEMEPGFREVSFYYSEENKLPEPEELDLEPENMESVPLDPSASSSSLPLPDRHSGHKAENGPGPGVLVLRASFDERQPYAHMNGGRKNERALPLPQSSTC

Briefly, IC50 measured for CN(C)CCN1CCc2ccc(Nc3nccc(Nc4cnc5ccccc5c4)n3)cc21 [Compound 143] : ≤ 500 nM

Briefly, IC50 measured for CC1(C)CCc2ncc(Nc3ccnc(Nc4ccc(OCCCN5CCOCC5)cc4)n3)cc2C1 [Compound 63] : ≤ 500 nM

Briefly, IC50 measured for COc1ccc2cc(Nc3ccnc(Nc4ccc(O[C@H]5C[C@H](N(C)C)C5)cc4)n3)cnc2c1 [Compound 355] : 500 to 2000 nM

Briefly, IC50 measured for COc1cc(Nc2nccc(Nc3cnc4c(C)cccc4c3)n2)ccc1OCCCN1CCCCC1 [Compound 99] : ≤ 500 nM

Briefly, IC50 measured for COc1cc(C2CCOCC2)ccc1Nc1nccc(Nc2cc3cccc(F)c3[nH]c2=O)n1 [Compound 220] : ≤ 500 nM

Briefly, IC50 measured for COc1cc(Nc2nccc(Nc3cnc4c(ccn4C)c3)n2)ccc1O[C@H]1C[C@@H](N(C)C)C1 [Compound 282] : ≤ 500 nM

Briefly, IC50 measured for COc1cc(Nc2nccc(Nc3cnc4ccc(Cl)cc4c3)n2)cnc1OC1CCNCC1(F)F (centres unmarked) [Compound 257] : ≤ 500 nM

Briefly, IC50 measured for CN1CC(Oc2ccc(Nc3nccc(Nc4cnc5ccccc5c4)n3)cc2)C1 [Compound 295] : 2000 to 10000 nM

====

Provide the reported IC50 of each item.
Target: IGF-1R (Homo sapiens (Human))
Assay: Example B-1: IGF-1R Assay (PC3 cells, IGF1 stimulation, AlphaLISA)
Assay type: cell-based
Conditions: 200 ng/mL IGF1 stimulation, read-out: Biological Activity against IGF-1R IC50

Briefly, IC50 measured for CN(C)CC1COc2cc(Nc3nccc(Nc4cnc5cc(F)c(F)cc5c4)n3)cnc2O1 (stereo not shown) : 500 to 2000 nM

Briefly, IC50 measured for CN(C)CC(=O)N1CCOc2cc(Nc3nccc(Nc4cnc5cc(F)c(F)cc5c4)n3)ccc21 : ≤ 500 nM

Briefly, IC50 measured for COc1cc(N2CCN(C)CC2)ccc1Nc1nccc(Nc2cnc3cc(Cl)ccc3c2)n1 : ≤ 500 nM

Briefly, IC50 measured for COc1cc(Nc2nccc(Nc3cc4cc(Cl)ccc4[nH]c3=O)n2)ccc1O[C@H]1C[C@H](N(C)C)C1 : ≤ 500 nM

====

Provide the reported pIC50 of each item.
Target: IGF-1R (Homo sapiens (Human))
Assay: Example B-2: IGF-1R Assay (PathHunter cell lines, EC80 agonist challenge)
Format: cell-based
Conditions: read-out: IC50 (Biological Activity against IGF-1R)
Sequence (P08069 31-1367, species assumed): as the sequence (P08069 31-1367) above
pIC50: −log10 of the molar value.

Briefly, pIC50 measured for COc1cc(Nc2nccc(Nc3cnc4ccccc4c3)n2)ccc1O[C@H]1C[C@@H](N2CCOCC2)C1 : ≥ 6.30

Briefly, pIC50 measured for COc1cc(N2CCN(CC(F)F)CC2)ncc1Nc1nccc(Nc2cc3cccc(F)c3[nH]c2=O)n1 : < 5.00

Briefly, pIC50 measured for CN(C)CCN1CCc2ccc(Nc3nccc(Nc4cnc5ccccc5c4)n3)cc21 : ≥ 6.30

Briefly, pIC50 measured for CN(C)CC(=O)N1CCc2ccc(Nc3nccc(Nc4cnc5c(F)c(F)ccc5c4)n3)cc21 : ≥ 6.30

Briefly, pIC50 measured for CN(C)CC(=O)N1CCc2ccc(Nc3nccc(Nc4cnc5ccc(Cl)cc5c4)n3)cc21 : ≥ 6.30

Briefly, pIC50 measured for CN(C)CC1COc2ncc(Nc3nccc(Nc4cnc5ccc(Cl)cc5c4)n3)cc2O1 (centres unmarked) : 5.70 to 6.30

Briefly, pIC50 measured for CN(C)CC(=O)N1CCc2ccc(Nc3nccc(Nc4cnc5cc(F)c(F)cc5c4)n3)cc21 : 5.70 to 6.30

Briefly, pIC50 measured for COc1cc(Nc2nccc(Nc3cc4cccc(F)c4[nH]c3=O)n2)cnc1N1CCC(C)(O)CC1 : 5.70 to 6.30

====

Target: IGF-1R (Homo sapiens (Human), UniProt P08069)
Experiment: Example B-2: IGF-1R Assay (PathHunter cell lines, EC80 agonist challenge)
Format: cell-based
Details: read-out: IC50 (Biological Activity against IGF-1R)
pIC50: −log10 of the molar value.
attribute_measured: pIC50

Briefly, pIC50 measured for c1ccc2ncc(Nc3ccnc(Nc4ccc5c(ccn5CC5CCOCC5)c4)n3)cc2c1 : 5.70 to 6.30

Briefly, pIC50 measured for CN(C)CC1COc2cc(Nc3nccc(Nc4cnc5ccccc5c4)n3)cnc2O1 (stereo not shown) : ≥ 6.30

Briefly, pIC50 measured for COc1cc(C2CCOCC2)ccc1Nc1nccc(Nc2cc3cccc(F)c3[nH]c2=O)n1 : 5.70 to 6.30

Briefly, pIC50 measured for CN(C)CC1COc2cc(Nc3nccc(Nc4cnc5ccc(Cl)cc5c4)n3)cnc2O1 (stereo not shown) : ≥ 6.30

Briefly, pIC50 measured for CN(C)CC(=O)N1CCc2ccc(Nc3nccc(Nc4cnc5ccc(Br)cc5c4)n3)cc21 : ≥ 6.30

Briefly, pIC50 measured for COc1cc(Nc2nccc(Nc3cnc4ccccc4c3)n2)ccc1O[C@H]1C[C@@H](N(C)C)C1 : ≥ 6.30

Briefly, pIC50 measured for COc1nc(C2CCOCC2)ccc1Nc1nccc(Nc2cc3cccc(F)c3[nH]c2=O)n1 : 5.70 to 6.30

Briefly, pIC50 measured for c1ccc2ncc(Nc3ccnc(Nc4ccc5c(c4)OCCO5)n3)cc2c1 : ≥ 6.30

Briefly, pIC50 measured for COc1cc(C2CCOCC2)ncc1Nc1nccc(Nc2cc3cccc(F)c3[nH]c2=O)n1 : ≥ 6.30

Briefly, pIC50 measured for COc1cc(N2CCN(C)CC2)ccc1Nc1nccc(Nc2cnc3ccc(Br)cc3c2)n1 : 5.70 to 6.30

Briefly, pIC50 measured for CN(C)CC(=O)N1CCc2ccc(Nc3nccc(Nc4cnc5ccccc5c4)n3)cc21 : ≥ 6.30

Briefly, pIC50 measured for CN(C)CC(=O)N1CCOc2cc(Nc3nccc(Nc4cnc5cc(F)c(F)cc5c4)n3)ccc21 : ≥ 6.30

Briefly, pIC50 measured for COc1cc(Nc2nccc(Nc3cnc4ccc(Cl)cc4c3)n2)ccc1OCCCN1CCCCC1 : ≥ 6.30

Briefly, pIC50 measured for COc1cc(Nc2nccc(Nc3cnc4c(c3)OCCO4)n2)ccc1O[C@H]1C[C@H](N(C)C)C1 : ≥ 6.30

Briefly, pIC50 measured for COc1cc(Nc2nccc(Nc3cnc4ccc(Cl)cc4c3)n2)ccc1O[C@H]1C[C@H](N(C)C)C1 : ≥ 6.30

Briefly, pIC50 measured for COc1cc(Nc2nccc(Nc3cnc4c(Cl)cc(F)cc4c3)n2)ccc1O[C@H]1C[C@@H](N(C)C)C1 : 5.70 to 6.30

====

Target: IGF-1R (Homo sapiens (Human), UniProt P08069)
Assay: Example B-1: IGF-1R Assay (PC3 cells, IGF1 stimulation, AlphaLISA)
Type: cell-based
Settings: 200 ng/mL IGF1 stimulation, read-out: Biological Activity against IGF-1R IC50
attribute_measured: IC50

Briefly, IC50 measured for CN(C)CC(=O)N1CCc2ccc(Nc3nccc(Nc4cnc5ccccc5c4)n3)cc21 : ≤ 500 nM

Briefly, IC50 measured for c1cc(Nc2cnc3c(c2)C2CCC3CC2)nc(Nc2ccc(OCCCN3CCOCC3)cc2)n1 : ≤ 500 nM

Briefly, IC50 measured for O=C1CN([C@H]2CC[C@@H](Oc3ccc(Nc4nccc(Nc5cnc6ccc(Cl)cc6c5)n4)cc3)CC2)CCN1 : ≤ 500 nM

Briefly, IC50 measured for CN(C)[C@H]1CC[C@@H](Oc2ccc(Nc3nccc(Nc4cnc5ccc(Cl)cc5c4)n3)cc2)CC1 : ≤ 500 nM

Briefly, IC50 measured for O=S1(=O)CCN(CCCOc2ccc(Nc3nccc(Nc4cnc5c(c4)C4CCC5C4)n3)cc2)CC1 (stereo not shown) : ≤ 500 nM

Briefly, IC50 measured for COc1cc(Nc2nccc(Nc3cnc4ccccc4c3)c2F)ccc1O[C@H]1C[C@@H](N(C)C)C1 : > 10000 nM

Briefly, IC50 measured for COc1cc(Nc2nccc(Nc3cnc4ccc(Cl)cc4c3)n2)ccc1O[C@H]1C[C@H](N2CCS(=O)(=O)CC2)C1 : ≤ 500 nM

Briefly, IC50 measured for CC(O)C(=O)N1CCN(c2ccc(Nc3nccc(Nc4cnc5ccccc5c4)n3)cc2)CC1 (stereo not shown) : ≤ 500 nM

Briefly, IC50 measured for COc1cc(Nc2nccc(Nc3cnc4c(c3)C3CCC4CC3)n2)ccc1O[C@H]1C[C@H](N(C)C)C1 : ≤ 500 nM

Briefly, IC50 measured for COc1cc(N2CCN(C)CC2)ccc1Nc1nccc(Nc2cnc3c(Cl)cccc3c2)n1 : ≤ 500 nM

Briefly, IC50 measured for O=S1(=O)CCc2ncc(Nc3ccnc(Nc4ccc(OCCCN5CCOCC5)cc4)n3)cc2C1 : 500 to 2000 nM

Briefly, IC50 measured for COc1cc(Nc2nccc(Nc3cc4cccc(F)c4[nH]c3=O)n2)cnc1N1CCS(=N)(=O)CC1 : > 10000 nM

Briefly, IC50 measured for COc1cc(Nc2nccc(Nc3cnc4cc(F)c(F)cc4c3)n2)cnc1N1CCC(C)(O)CC1 : ≤ 500 nM

Briefly, IC50 measured for COc1ccc2cc(Nc3ccnc(Nc4ccc(OCCCN5CCCCC5)c(OC)c4)n3)cnc2c1 : ≤ 500 nM

Briefly, IC50 measured for COc1cc(Nc2nccc(Nc3cc4cccc(F)c4[nH]c3=O)n2)cnc1N1CCN(C2COC2)CC1 : ≤ 500 nM

Briefly, IC50 measured for COc1cc(N2CCC(C)(O)CC2)ncc1Nc1nccc(Nc2cnc3ccc(Cl)cc3c2)n1 : ≤ 500 nM

Briefly, IC50 measured for COc1cc(Nc2nccc(Nc3cnc4cc(N)ccc4c3)n2)ccc1O[C@H]1C[C@@H](N(C)C)C1 : ≤ 500 nM

Briefly, IC50 measured for COc1cccc2cc(Nc3ccnc(Nc4ccc(OCCCN5CCOCC5)cc4)n3)cnc12 : 500 to 2000 nM

Briefly, IC50 measured for COc1cc(Nc2nccc(Nc3cc4ccccc4nc3OC)n2)ccc1OCCCN1CCCCC1 : ≤ 500 nM

Briefly, IC50 measured for Oc1ccc2cc(Nc3ccnc(Nc4ccc(OCCCN5CCOCC5)cc4)n3)cnc2c1 : ≤ 500 nM

Briefly, IC50 measured for COc1cc(Nc2nccc(Nc3cnc4c(c3)CCCC4)n2)ccc1OCCCN1CCCCC1 : ≤ 500 nM

Briefly, IC50 measured for O=S1(=O)CCN(CCCOc2ccc(Nc3nccc(Nc4cnc5c(Cl)cccc5c4)n3)cc2)CC1 : ≤ 500 nM

Briefly, IC50 measured for COc1cc(Nc2nccc(Nc3cnc4c(c3)C(C)(C)OC(C)(C)C4)n2)ccc1OCCCN1CCCCC1 : 500 to 2000 nM

Briefly, IC50 measured for COc1cc(Nc2nccc(Nc3ccc(Cl)nc3C(N)=O)n2)ccc1O[C@H]1C[C@@H](N(C)C)C1 : ≤ 500 nM

Briefly, IC50 measured for CN(C)CC1COc2cc(Nc3nccc(Nc4cnc5ccc(Cl)cc5c4)n3)ccc2O1 (stereo not shown) : ≤ 500 nM

Briefly, IC50 measured for COc1nc(N2CCC(C)(O)CC2)ccc1Nc1nccc(Nc2cc3cccc(F)c3[nH]c2=O)n1 : ≤ 500 nM

Briefly, IC50 measured for COc1cc(Nc2ncc(F)c(Nc3cnc4ccc(Cl)cc4c3)n2)ccc1O[C@H]1C[C@@H](N(C)C)C1 : ≤ 500 nM

Briefly, IC50 measured for COc1cc(Nc2nccc(Nc3cnc4ccc(Cl)cc4c3)n2)cnc1N1CCC(C)(O)CC1 : ≤ 500 nM

Briefly, IC50 measured for COc1cc(Nc2ncc(F)c(Nc3cnc4ccccc4c3)n2)ccc1OCCCN1CCCCC1 : ≤ 500 nM

Briefly, IC50 measured for COc1cc(Nc2nccc(Nc3cnc4ccc(Cl)cc4c3)n2)ccc1O[C@H]1C[C@@H](N(C)C)C1 : ≤ 500 nM

Briefly, IC50 measured for COc1cc(C2CCN(CC#N)CC2)ccc1Nc1nccc(Nc2cc3cccc(F)c3[nH]c2=O)n1 : ≤ 500 nM
